Sourced from patent US20230323358A1

Below, each entry is listed alongside its reported EC50.
test system: TGF-β1; assay: EC50 of TGF-β1 siRNA candidates before and after modification, knockdown in cells; type: cell-based, human; details: A549 cells, homo, 24 h, 24well (Table 6); read-out: EC50 (nM, 24 h, 24well) A549
Oligonucleotides are written 5' to 3', each unit as a sugar letter and its base; * is a phosphorothioate linkage, no mark a phosphodiester; rarer units and linkages stand in square brackets, end groups in braces. Plain capitals give the bases only. {P} = phosphorylation (indicated by P); d = 2'-deoxy (DNA); m = 2'-O-methyl; r = 2'-OH (RNA); f = 2'-fluoro
Number plus unit, in that order.

Past entries and their recorded results:
substance	EC50
TF1-21-hm3#: siRNA targeting TGF-β1 mRNA; sense SEQ ID 23, antisense SEQ ID 33 (sense AACUAUUGCUUCAGCUCCATT; antisense UGGAGCUGAAGCAAUAGUUTT; sugars from the 5' end r19 d2, backbone not given here)	1.36 nM
TF1-21-hm6#mod: Modified (2′F, 2′OME, phosphorylation) siRNA targeting TGF-β1; sense SEQ ID 148, antisense SEQ ID 152 (sense mCmGmGmCmAmGfCfUfGmUmAmCmAmUmUmGmAmCmUdTdT; antisense {P}-mAfGmUmCmAmAmUmGmUmAmCmAmGfCmUmGmCmCmGdTdT)	0.22 nM
TF1-21-hm6#: siRNA targeting TGF-β1 mRNA; sense SEQ ID 26, antisense SEQ ID 36 (sense CGGCAGCUGUACAUUGACUTT; antisense AGUCAAUGUACAGCUGCCGTT; sugars from the 5' end r19 d2, backbone not given here)	3.02 nM

*Q* Please provide the recorded EC50 for TF1-21-hm3#mod: Modified (2′F, 2′OME, phosphorylation) siRNA targeting TGF-β1; sense SEQ ID 147, antisense SEQ ID 151 (sense mAmAmCmUmAmUfUfGfCmUmUmCmAmGmCmUmCmCmAdTdT; antisense {P}-mUfGmGmAmGmCmUmGmAmAmGmCmAfAmUmAmGmUmUdTdT) , tested on TGF-β1.
*A* 0.04 nM
